The origin of these recorded values is the supplement of paper PMC9433436.

MEASUREMENT_TARGET: E. coli RNase P holoenzyme (M1 P RNA + rnpA protein) (UniProt P0A7Y8)
Sequence: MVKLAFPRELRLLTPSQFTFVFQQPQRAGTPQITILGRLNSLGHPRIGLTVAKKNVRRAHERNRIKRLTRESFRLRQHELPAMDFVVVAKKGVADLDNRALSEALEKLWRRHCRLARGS
ASSAY_SUMMARY: relative kcat/Km (krel) vs genomic leader AAAGAU (relative (reference leader = 1)); higher = faster RNase P cleavage
PARTICULARS: fraction of substrate reacted: ~13-16% (15.68% repeat 1, 13.17% repeat 2)
In all, about 4,100 sequences were measured (“relative kcat/Km (krel) vs genomic leader AAAGAU”: median about 1.7, highest 2% from about 6.5 on). The entries come from a sample that favours the highest values as a whole.
Label No if relative kcat/Km falls below 4; label Yes in every other case.

Worked cases, answers included:
[
  {
    "ITEM_SEQUENCE": "AGTAAG",
    "CLASS": "No"
  },
  {
    "ITEM_SEQUENCE": "GACGTA",
    "CLASS": "No"
  },
  {
    "ITEM_SEQUENCE": "ACCTAC",
    "CLASS": "Yes"
  },
  {
    "ITEM_SEQUENCE": "TAGTAC",
    "CLASS": "Yes"
  },
  {
    "ITEM_SEQUENCE": "ATCGAT",
    "CLASS": "No"
  },
  {
    "ITEM_SEQUENCE": "TACATC",
    "CLASS": "Yes"
  },
  {
    "ITEM_SEQUENCE": "CTTATT",
    "CLASS": "No"
  },
  {
    "ITEM_SEQUENCE": "TTGCTA",
    "CLASS": "No"
  }
]

Given `ATCTCC` , state whether its relative kcat/Km is at least 4.
Yes

Hi, just wondering whether `TCCTCG` shows relative kcat/Km of 4 or higher.
No

Is relative kcat/Km for `GGGTTC` at or above 4?
No

State whether the measured relative kcat/Km reaches 4, counting equality as reaching it, for `GCAAAT`
No

Evaluate `TAACTC` : relative kcat/Km at minimum 4?
No

Has `CCCTTC` a recorded relative kcat/Km greater than or equal to 4?
No

Entry `CTCTAG` : is its relative kcat/Km no less than 4?
No

Confirm if relative kcat/Km reported for the sequence `TACGAG` is 4 or above.
No

###

This section presents sequences with their documented relative kcat/Km values.
MEASUREMENT_TARGET: E. coli RNase P holoenzyme (M1 P RNA + rnpA protein)
Sequence: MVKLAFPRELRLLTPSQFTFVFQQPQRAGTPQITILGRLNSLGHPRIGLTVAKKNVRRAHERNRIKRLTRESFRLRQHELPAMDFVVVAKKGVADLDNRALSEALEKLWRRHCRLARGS
ASSAY_SUMMARY: relative kcat/Km (krel) vs genomic leader AAAGAU (relative (reference leader = 1)); higher = faster RNase P cleavage
PARTICULARS: fraction of substrate reacted: ~9-10% (9.79% repeat 1, 9.1% repeat 2)
The full ranking holds about 4,100 sequences; the median of “relative kcat/Km (krel) vs genomic leader AAAGAU” is about 1.7, and the highest 2% start at about 6.5. The sample as a whole holds a higher share of the highest values than the screen did.

Guide cases for relative kcat/Km, answers given:
[
  {
    "ITEM_SEQUENCE": "GGCACC",
    "MEASUREMENT_KIND": "relative kcat/Km",
    "OBSERVED_MEASUREMENT": 1.52
  },
  {
    "ITEM_SEQUENCE": "TTATAC",
    "MEASUREMENT_KIND": "relative kcat/Km",
    "OBSERVED_MEASUREMENT": 4.34
  },
  {
    "ITEM_SEQUENCE": "ATCACA",
    "MEASUREMENT_KIND": "relative kcat/Km",
    "OBSERVED_MEASUREMENT": 2.67
  },
  {
    "ITEM_SEQUENCE": "CAAGCT",
    "MEASUREMENT_KIND": "relative kcat/Km",
    "OBSERVED_MEASUREMENT": 1.48
  },
  {
    "ITEM_SEQUENCE": "CCTAGA",
    "MEASUREMENT_KIND": "relative kcat/Km",
    "OBSERVED_MEASUREMENT": 3.14
  },
  {
    "ITEM_SEQUENCE": "ATCTTA",
    "MEASUREMENT_KIND": "relative kcat/Km",
    "OBSERVED_MEASUREMENT": 2.6
  }
]

Provide the documented relative kcat/Km with E. coli RNase P holoenzyme (M1 P RNA + rnpA protein) as the system for `TGCTGA`
1.91

Please tell me: relative kcat/Km of `CCGTAC` , system E. coli RNase P holoenzyme (M1 P RNA + rnpA protein)?
3.58

GET /values?readout=relative kcat/Km&system=E. coli RNase P holoenzyme (M1 P RNA + rnpA protein)&item= `ATCTTC`
3.23

Quick check: relative kcat/Km on E. coli RNase P holoenzyme (M1 P RNA + rnpA protein), item `ACCTGC` ?
3.58

Give the reported relative kcat/Km for `CAGATT` (system: E. coli RNase P holoenzyme (M1 P RNA + rnpA protein)).
1.72

Could you share what relative kcat/Km was measured for `GACAAA` , tested on E. coli RNase P holoenzyme (M1 P RNA + rnpA protein)?
4.01

Value wanted: relative kcat/Km (E. coli RNase P holoenzyme (M1 P RNA + rnpA protein)) of entry `GCATGA`
1.91
